# experiment: yeast display, Sf9 membrane polyspecificity reagent, FACS + sequencing; frameworks hold sequencing errors
outcome-measure: polyreactivity (PSR sort gate)

Determine from records and report polyreactivity (PSR sort gate) for `QVQLVESGGGLVQAGGSLRLSCAASGLTFVGNAMGWYRQAPGKERELVAAISRSGGRTYYADSVKGRFTISRDNAKNTVYLQMNSLKPEDTAVYYCAAPYRSYDWYDYWGQGTQVTVSS`
high polyreactivity

Let me know recorded polyreactivity (PSR sort gate) for `QVQLVESGGGLVQAGGSLRLSCAASGSTFGHYARGWYRQATGKERELVAAISFTGARTYYADSVKGRFTISRDNAKNTVYLQMNSLKPEDTAVYYCIARGDYRISDYWGQGTQVTVSS` , thanks.
high polyreactivity

For the sequence `QVQLVESGGGLVQAGGSLRLSCAASGLIFRGYVMGWYRQAPGKERELVAAISRRGVNTYYADSVKGRFTISRDNAKNTFYLQMNSLKPEDTAVYYCNAYVHTQGGDYWGQGTQVTVSS` , give its measured polyreactivity (PSR sort gate) value.
high polyreactivity

====

# experiment: yeast display, Sf9 membrane polyspecificity reagent, FACS + sequencing; frameworks hold sequencing errors
outcome-measure: polyreactivity (PSR sort gate)

Indicate its recorded polyreactivity (PSR sort gate); the sequence in question is `QVQLVESGGGLVQAGGSLRLSCAASGRTFRSYAMGWYRQAPGKEREFVAAISRSGASTRYADSVKGRFTISRDNAKNTVYLQMNSLKPEDTAVYYCAAVWPDVRGYDYWGQGTQVTVSS`
high polyreactivity

Give polyreactivity (PSR sort gate) for `QVQLVESGGGLVQAGGSLRLTCAASGAIFDSYAMGWYRQAPGKEWQLVASISYRGGSTYYADSVKGRFTISRDHAKNTVYLQKNSLKPEDTAVYYCAATPGYHYRSWRYYYWGQGTLVTVSS`
high polyreactivity

====

# experiment: yeast display, Sf9 membrane polyspecificity reagent, FACS + sequencing; frameworks hold sequencing errors
outcome-measure: polyreactivity (PSR sort gate)

Past entries and their recorded results:
Return the recorded polyreactivity (PSR sort gate) value; entry: `QVQLVDSGGGLDQAGGSLRLSCSASGIIFRGNAMGWYRQAPGKEREFVAAIALRGSRSYYADSVKGRFTISRDNAKNTVYLQMISLKPEDTAVYYCAARYYSEPNAYYYWGQGTQLTVSS`
high polyreactivity

Respond only with polyreactivity (PSR sort gate) recorded for `QVQLVESGGGLVQAGGSLRLSFAASGINFEHNSMGWYRQAPGKERELVAVISKYGGRTYYADSVKGRFTISRDNAKNTVYLQMNSLKPEDTAVYYCAKRSPFITWNGISYEEYDYWGQGTQVTVSS`
low polyreactivity

// Input: `QVQLVESGGGLVQAGGSLRLSCAASGSIFYAYTMGWYRQAPGKERELVARITQSDDGTYYADSVKGRFTISRDNAKNTVYLQMNSLKPEDTAVYYCAVVFWQLAHRYDYWGQGTQVTVSS` . Output its polyreactivity (PSR sort gate) only.
low polyreactivity

Read off the recorded polyreactivity (PSR sort gate) for `QVQLVESGGGLVQAGGSLRLSCAASGRIFFGYAMGWYRQAPGKERELVAAITRRGTITHYADSVKGRFTISRDNAKNTVYLQMNSLKPEDTAVYYCNTVYARYSTAPGYNYWGQGTQVTVSS`
high polyreactivity

Tell me measured polyreactivity (PSR sort gate) for `QVQLVESGGGLVQAGGSLRLSCAASGSTFTRNAMGWYRQAPGKERELVAAISSRGTSTYYADSVKGRFTISRDNAKNTVYLQMNSLKPEDTAVYYCAAVGVKQYLGGNPFDYWGQGTQVTVSS` please.
high polyreactivity

---
Item `QVQLQESVGGLVLAGGSLRLICSASANISVYGTMGWYRKAPGKEREFVATIDPGTNTNYADSVKDRFTISRDNAKNTVYLQMNSLKPEDTAVYYCEVEGGSDWPYRYWGQGTQVTVSS` : provide polyreactivity (PSR sort gate)
low polyreactivity

Look up and state reported polyreactivity (PSR sort gate) for `QVQLVESGGGLVQAGGSLRLSCAASGNTFRYYAMGWYRQAPGKERELVAVITTRGGSTNYADSVKGRFTISRDNAKNTVYLQMNSLKPEDTAVYYCAARPGIRSYPPGYGYWGQGTQVTVSS`
low polyreactivity

Output measured polyreactivity (PSR sort gate) for this item: `QVQLVESGGGIVQAGGTLRLSCAASGSTFKNKAMGCNRHAPGKETEFVAGITRRGTSTYYADSVKGRFTISLDNAKNSVYLQMNSLKPEDTSVYYCAARAWYPSRYDYWGQGTLVTVSS`
high polyreactivity

Identify measured polyreactivity (PSR sort gate) corresponding to `QVQLVESGGGLVQAGGSLRLSCAASGSTIVVYAMGWYRQAPGKARELVAAITTSDDSTYYADSVKGRFTISRDNAKNTVYLQMNSLKPEDTAVYYCAATLRWQDGYSGQGTQVTVSS`
low polyreactivity

Specify polyreactivity (PSR sort gate) for `QVQLVDSGGGLVQAGGSLRLSCAASGRIFGRYAMGWSRQAPGKESELVASITYRGGGTYYADSVKGRFTISRDNAKNTVYLQMNSLKPEDTAVYYCNAYFAGVLRRNYRGQGTQVTVSS` and stop.
high polyreactivity

Identify the reported polyreactivity (PSR sort gate) for the following entry. `QEQLQESGSGLVQAGGSLRLSCAASGNIFQDWVMGWYRKAPGQERELVAAISPGAITYYADSVKGRFTISRDNAKNSVYLQTKSLKPEDTAVYYCGAYYIVEYLHGYWGQGTRVTVSS`
low polyreactivity
